Each recorded value in this set is attributed to paper PMC7144022.

Tested on: BVDV NADL virus
PROTOCOL: CPE-based antiviral assay, BVDV NADL in MDBK cells (MTS/PMS)
RUN PARAMETERS: selectivity index, CC50 vs EC50
Classify by measured S.I.: Criterion met if it is equal to or exceeds 200, Criterion not met if it is smaller.

Is the recorded value of S.I. equal to or greater than 200 for this compound? O=C(Nc1ccn(-c2ccc(Cl)cc2)n1)c1cc(-c2ccco2)nc2c(F)cccc12 Criterion met

Input Cc1sc(NC(=O)c2cc(-c3ccccc3)nc3ccccc23)nc1-c1ccccc1 Criterion met

Input Cc1ccc2nc(NC(=O)c3cc(O)nc4ccccc34)sc2c1 Criterion not met

Input Cc1cccc2sc(NC(=O)c3cc(-c4ccco4)nc4ccc(F)cc34)nc12 Criterion met

Input Cc1ccc(-c2cc(C(=O)Nc3ccn(-c4ccccc4)n3)c3ccccc3n2)cc1 Criterion met

Input Cc1ccc2nc(NC(=O)c3cc[n+]([O-])cc3)sc2c1 [CSFC-27, [O-][n+]1ccc(cc1)C(=O)Nc1nc2ccc(C)cc2s1] Criterion not met

Input Cc1ccc(-c2cc(C(=O)Nc3ccn(-c4ccccc4)n3)c3ccccc3n2)o1 Criterion not met

Input O=C(Nc1ccn(-c2ccccc2)n1)c1cc(-c2cccs2)nc2c(Cl)cccc12 Criterion not met

Input Cc1cccc2sc(NC(=O)c3cc(-c4cccs4)nc4ccc(Br)cc34)nc12 Criterion not met

Input Cc1ccc2nc(NC(=O)c3cc4ccccc4[nH]3)sc2c1 [CSFC-28, Cc1ccc2nc(NC(=O)c3cc4ccccc4[NH]3)sc2c1] Criterion not met

Input Cc1ccc2nc(-c3ccco3)cc(C(=O)Nc3nc4c(C)cccc4s3)c2c1 Criterion not met

Input O=C(Nc1ccn(-c2ccccc2)n1)c1cc(-c2ccncc2)nc2ccccc12 Criterion not met

Input Cc1ccc2nc(NC(=O)c3ccccn3)sc2c1 Criterion not met

Input O=C(Nc1nc2cc(Cl)ccc2s1)c1cc(-c2ccco2)nc2ccccc12 Criterion not met

Input Cc1noc(C)c1NC(=O)c1cc(-c2ccco2)nc2ccccc12 Criterion not met

Input Cc1cccc2sc(NC(=O)c3cc(-c4cc(Cl)sc4Cl)nc4ccccc34)nc12 Criterion met

Input Cc1ccc2nc(N(C)C(=O)c3cc(-c4ccccc4)nc4ccccc34)sc2c1 Criterion not met

Input Cc1cc2nc(NC(=O)c3cc(-c4ccco4)nc4ccccc34)sc2cc1C Criterion not met

Input Cc1ccc2nc(NC(=O)c3ccccc3)sc2c1 Criterion not met

Input Cc1cccc2sc(NC(=O)c3cc(-c4cccs4)nc4c(F)cccc34)nc12 Criterion not met

Input Cc1cccc2sc(NC(=O)c3cc(-c4cnccn4)nc4ccccc34)nc12 Criterion met

Input O=C(Nc1nc2ccc([N+](=O)[O-])cc2s1)c1cc(-c2ccccc2)nc2ccccc12 Criterion not met

Input Cn1c(NC(=O)c2cc(-c3ccccc3)nc3ccccc23)nc2ccccc21 Criterion not met

Input O=C(Nc1ccn(-c2ccccc2)n1)c1cc(-c2ccc(F)cc2)nc2ccccc12 Criterion met

Input O=C(Nc1ccn(-c2ccccc2)n1)c1cc(-c2ccccc2Cl)nc2ccccc12 Criterion met

Input Cc1ccc(-c2cc(C(=O)Nc3nc4c(C)cccc4s3)c3ccccc3n2)cc1 Criterion met

Input O=C(Nc1ccn(-c2ccc(F)cc2)n1)c1cc(-c2cccnc2)nc2ccccc12 Criterion not met

Input O=C(Nc1ccn(-c2ccccc2)n1)c1cc(-c2ccc(Cl)s2)nc2ccccc12 Criterion not met

Input Cc1ccc(-c2csc(NC(=O)c3cc(-c4ccccc4)nc4ccccc34)n2)cc1 Criterion not met

Input COc1ccc2nc(NC(=O)c3cc(-c4ccc(F)cc4)nc4ccccc34)sc2c1 Criterion met

Input O=C(Nc1ccncc1)c1cc(-c2ccccc2)nc2ccccc12 Criterion not met

Input COc1ccc2nc(NC(=O)c3cc(-c4ccco4)nc4ccccc34)sc2c1 Criterion met
